FYI, the data here is from paper PMC5700166.

- SYSTEM: GST-Hu-p50 (Homo sapiens, UniProt P19838 7-356)
- Sequence (P19838 7-356): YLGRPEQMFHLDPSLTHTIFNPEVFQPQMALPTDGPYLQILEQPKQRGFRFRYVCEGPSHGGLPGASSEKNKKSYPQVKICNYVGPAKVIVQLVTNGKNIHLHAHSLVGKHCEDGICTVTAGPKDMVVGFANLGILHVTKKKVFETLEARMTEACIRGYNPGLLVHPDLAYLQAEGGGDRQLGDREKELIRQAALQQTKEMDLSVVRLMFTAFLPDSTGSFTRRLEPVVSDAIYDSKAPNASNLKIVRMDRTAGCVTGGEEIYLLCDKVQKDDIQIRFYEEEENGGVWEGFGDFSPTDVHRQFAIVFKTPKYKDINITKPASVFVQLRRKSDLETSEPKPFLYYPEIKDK
- TEST NAME: protein-binding microarray (PBM); PBM: ~300 nM protein, 6 mM HEPES pH 7.8, 80 mM KCl, 0.5 mM EDTA, 0.5 mM EGTA, 6% glycerol, 35 ng/ul poly-dIdC, 1% milk, 1 h, room temperature; high values mean tight binding
- TEST SETTINGS: dsDNA, one strand shown
MEASURE: binding signal (z-score)
Give your result in z-score as a bare value.

Below, 3 sequences whose answers are already recorded.
[
  {
    "POLYMER SEQUENCE": "CCGATTAACATCAGAAATACCCATGATGTTAATCGGGTCTTGATTCGCTTGACGCTGCTG",
    "binding signal [z-score]": 5.12
  },
  {
    "POLYMER SEQUENCE": "CCGATTAACATCAGGCAACCCCCTGATGTTAATCGGGTCTTGATTCGCTTGACGCTGCTG",
    "binding signal [z-score]": 5.13
  },
  {
    "POLYMER SEQUENCE": "CCGATTAACATCAGGGATACACCTGATGTTAATCGGGTCTTGATTCGCTTGACGCTGCTG",
    "binding signal [z-score]": 2.49
  }
]

Exercise: What value of measured binding signal is listed for CCGATTAACATCAGGGGATTCTATGATGTTAATCGGGTCTTGATTCGCTTGACGCTGCTG ?
Solution: 6.98

Exercise: Name the reported binding signal value associated with the sequence CCGATTAACATCAAATCTTCCCCTGATGTTAATCGGGTCTTGATTCGCTTGACGCTGCTG
Solution: 6.14

Exercise: Can you look up the measured binding signal of CCGATTAACATCACCCGGGAAACTGATGTTAATCGGGTCTTGATTCGCTTGACGCTGCTG for me?
Solution: 1.81

Exercise: Request the reported binding signal associated with CCGATTAACATCACATTTTTCCCTGATGTTAATCGGGTCTTGATTCGCTTGACGCTGCTG
Solution: 3.84

Exercise: Which binding signal value is on record for CCGATTAACATCAAGGGGGAAATTGATGTTAATCGGGTCTTGATTCGCTTGACGCTGCTG ?
Solution: 7.51

---

Catalogue of binding signal values
- SYSTEM: GST-Nv-NF-kB (Cys allele) (Nematostella vectensis, UniProt E5G601 2-411)
- Sequence: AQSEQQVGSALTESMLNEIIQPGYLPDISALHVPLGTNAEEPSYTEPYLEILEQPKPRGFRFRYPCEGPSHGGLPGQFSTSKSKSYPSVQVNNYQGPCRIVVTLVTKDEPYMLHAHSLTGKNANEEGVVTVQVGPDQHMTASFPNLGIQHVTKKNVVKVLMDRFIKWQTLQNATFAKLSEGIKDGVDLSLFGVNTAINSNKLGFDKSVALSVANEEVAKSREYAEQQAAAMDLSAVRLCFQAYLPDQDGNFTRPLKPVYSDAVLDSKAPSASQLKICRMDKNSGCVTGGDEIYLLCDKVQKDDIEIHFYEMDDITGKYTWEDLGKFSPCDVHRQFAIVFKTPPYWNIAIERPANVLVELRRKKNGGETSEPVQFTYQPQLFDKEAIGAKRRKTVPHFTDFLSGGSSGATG
- TEST NAME: protein-binding microarray (PBM); PBM: ~300 nM protein, 6 mM HEPES pH 7.8, 80 mM KCl, 0.5 mM EDTA, 0.5 mM EGTA, 6% glycerol, 35 ng/ul poly-dIdC, 1% milk, 1 h, room temperature; high values mean tight binding
- TEST SETTINGS: dsDNA, one strand shown
I only need the number, in z-score, no unit after it.

Solved entries:
[
  {
    "POLYMER SEQUENCE": "CCGATTAACATCACAGAAATCCCTGATGTTAATCGGGTCTTGATTCGCTTGACGCTGCTG",
    "binding signal (z-score)": 3.88
  },
  {
    "POLYMER SEQUENCE": "CCGATTAACATCAAAAGGGGATATGATGTTAATCGGGTCTTGATTCGCTTGACGCTGCTG",
    "binding signal (z-score)": 5.63
  },
  {
    "POLYMER SEQUENCE": "CCGATTAACATCAGAAATCCCAATGATGTTAATCGGGTCTTGATTCGCTTGACGCTGCTG",
    "binding signal (z-score)": 2.13
  }
]

Next sequence, please.
Exercise: Recorded binding signal for CCGATTAACATCACAAACGGGGCTGATGTTAATCGGGTCTTGATTCGCTTGACGCTGCTG , please?
Solution: 2.75

---

- SYSTEM: GST-Dm-Relish (Drosophila melanogaster, UniProt Q94527 99-473)
- Sequence: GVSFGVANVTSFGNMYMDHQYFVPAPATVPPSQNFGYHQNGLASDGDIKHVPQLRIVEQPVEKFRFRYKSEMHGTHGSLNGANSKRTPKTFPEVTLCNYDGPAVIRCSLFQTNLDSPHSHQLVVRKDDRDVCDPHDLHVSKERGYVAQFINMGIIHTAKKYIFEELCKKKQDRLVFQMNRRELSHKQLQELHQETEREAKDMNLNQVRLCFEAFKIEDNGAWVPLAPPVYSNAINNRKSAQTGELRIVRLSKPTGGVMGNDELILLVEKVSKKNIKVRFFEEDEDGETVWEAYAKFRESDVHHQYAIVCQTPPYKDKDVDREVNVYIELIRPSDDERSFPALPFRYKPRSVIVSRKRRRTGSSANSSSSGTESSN
- TEST NAME: protein-binding microarray (PBM); PBM: ~300 nM protein, 6 mM HEPES pH 7.8, 80 mM KCl, 0.5 mM EDTA, 0.5 mM EGTA, 6% glycerol, 35 ng/ul poly-dIdC, 1% milk, 1 h, room temperature; Ap Aiptasia and Nv Nematostella (sea anemones) / Co Capsaspora / Aq Amphimedon (sponge) / Dm Drosophila / Hu human; RHD is the Rel homology domain; high values mean tight binding
- TEST SETTINGS: dsDNA, one strand shown
Each entry below lists one item and its recorded binding signal value.
The answer consists of two parts: a number and, after it, its unit.

Past entries and their recorded results:
[
  {
    "POLYMER SEQUENCE": "CCGATTAACATCACCCCTTCCCCTGATGTTAATCGGGTCTTGATTCGCTTGACGCTGCTG",
    "binding signal": "2.5 z-score"
  },
  {
    "POLYMER SEQUENCE": "CCGATTAACATCAGGGTATTCCATGATGTTAATCGGGTCTTGATTCGCTTGACGCTGCTG",
    "binding signal": "5.81 z-score"
  },
  {
    "POLYMER SEQUENCE": "CCGATTAACATCAGGGAAAATGATGATGTTAATCGGGTCTTGATTCGCTTGACGCTGCTG",
    "binding signal": "1.15 z-score"
  },
  {
    "POLYMER SEQUENCE": "CCGATTAACATCAAATATCCCCCTGATGTTAATCGGGTCTTGATTCGCTTGACGCTGCTG",
    "binding signal": "7.63 z-score"
  },
  {
    "POLYMER SEQUENCE": "CCGATTAACATCAGGGTATACCCTGATGTTAATCGGGTCTTGATTCGCTTGACGCTGCTG",
    "binding signal": "4.16 z-score"
  },
  {
    "POLYMER SEQUENCE": "CCGATTAACATCAGGGGCGCCCCTGATGTTAATCGGGTCTTGATTCGCTTGACGCTGCTG",
    "binding signal": "6.07 z-score"
  },
  {
    "POLYMER SEQUENCE": "CCGATTAACATCACGGAAACCACTGATGTTAATCGGGTCTTGATTCGCTTGACGCTGCTG",
    "binding signal": "3.59 z-score"
  },
  {
    "POLYMER SEQUENCE": "CCGATTAACATCAAATCACCCCCTGATGTTAATCGGGTCTTGATTCGCTTGACGCTGCTG",
    "binding signal": "4.37 z-score"
  },
  {
    "POLYMER SEQUENCE": "CCGATTAACATCAGATGTCCCCCTGATGTTAATCGGGTCTTGATTCGCTTGACGCTGCTG",
    "binding signal": "2.8 z-score"
  },
  {
    "POLYMER SEQUENCE": "CCGATTAACATCAGGATAACCCCTGATGTTAATCGGGTCTTGATTCGCTTGACGCTGCTG",
    "binding signal": "2.74 z-score"
  }
]

Exercise: Item CCGATTAACATCACCCATTTCCGTGATGTTAATCGGGTCTTGATTCGCTTGACGCTGCTG has what recorded binding signal?
Solution: 1.34 z-score

Exercise: Consider the sequence shown here: CCGATTAACATCAGGCTTTCCCCTGATGTTAATCGGGTCTTGATTCGCTTGACGCTGCTG What is its recorded binding signal?
Solution: 7.38 z-score

Exercise: Which binding signal reading was recorded for the sequence CCGATTAACATCACCCACGACGATGATGTTAATCGGGTCTTGATTCGCTTGACGCTGCTG ?
Solution: 1.04 z-score

Exercise: Recorded binding signal for CCGATTAACATCAGGGGAGTCCATGATGTTAATCGGGTCTTGATTCGCTTGACGCTGCTG , please?
Solution: 6.79 z-score

Exercise: For CCGATTAACATCAAGGGGGGTGGTGATGTTAATCGGGTCTTGATTCGCTTGACGCTGCTG , what is its reported binding signal?
Solution: 4.12 z-score

Exercise: Could you share which binding signal value was measured for CCGATTAACATCAAGGGGAGTCCTGATGTTAATCGGGTCTTGATTCGCTTGACGCTGCTG ?
Solution: 8.01 z-score

Exercise: Entry CCGATTAACATCACCAAATTCCCTGATGTTAATCGGGTCTTGATTCGCTTGACGCTGCTG : reported binding signal = ?
Solution: 4.02 z-score
